Data origin: PubChem BioAssay (Tox21)

# EXPERIMENTAL_DETAILS: qHTS assay to identify small molecule agonists of the estrogen receptor alpha (ER-alpha) signaling pathway in the presence of an antagonist - cell viability counter screen (AID 1259386);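 also: cells exposed to compounds for 22 h at 37 °C before the viability read; nearly all actives have a fitted effect of over 30% in size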
# CONDITION_DETAILS: VM7Luc4E2 viability, CellTiter-Fluor fluorescence, 22 h; series mostly up to 92.4 µM
Records with an inconclusive call do not appear. Calls of active or inactive are those of the source. Calls follow the shape of the dose curve; as a rule, active = well fitted cell-killing curve with a large enough effect in the repeat runs; inconclusive = weak or mixed curves, or effect the other way; inactive = no such curve, though single readings can be large or run the other way.
Respond using exactly one of the listed classes: active, inactive

Here's what some known entries look like.
INSERT INTO assay_data (molecule, class_name) VALUES
  ('CN(C)C(=S)[S-].CN(C)C(=S)[S-].[Cu+2]', 'active'),
  ('Cc1ccc(CCl)cc1', 'inactive'),
  ('CC(=[OH+])/C=C(/C)[O-].CC(=[OH+])/C=C(\C)[O-].CC(=[OH+])/C=C(\C)[O-].[Fe]', 'inactive');

Exercise: For CC(=O)[O-].CC(=O)[O-].O.O.[Cd+2] , what call appears in the results of this test?
Key: active

Exercise: For Nc1ccc([N+](=O)[O-])cc1Cl , what call appears in the results of this test?
Key: active

Exercise: For Clc1ccc(C(c2ccccc2Cl)C(Cl)(Cl)Cl)cc1 (stereo unspecified) , what call appears in the results of this test?
Key: inactive

Exercise: For C1CCC2CCCCC2C1 (stereo unspecified) , what call appears in the results of this test?
Key: inactive

Exercise: For Clc1ccc(C(c2ccc(Cl)cc2)C(Cl)(Cl)Cl)cc1 , what call appears in the results of this test?
Key: inactive

Exercise: For c1ccc2c(c1)OCC(C1=NCCN1)O2 (stereo unspecified) , what call appears in the results of this test?
Key: inactive

Exercise: For C=COCCCl , what call appears in the results of this test?
Key: inactive

Exercise: For O=C(O)COc1nc(Cl)c(Cl)cc1Cl , what call appears in the results of this test?
Key: inactive
